Every entry's value here was drawn from patent US20140179593A1.

# tgt: T1, hDcn1^P (potentiating neddylation / PONY domain of human Dcn1, DCUN1D1) (Homo sapiens, UniProt Q96GG9 62-259)
# T1 construct: also called DCUN1D1^P; SCCRO PONY domain
# test-method-notes: ITC, two-site fit, second value
Positions of bridges follow the written chain, without caps; N, C: chain ends. Non-standard residues stand in square brackets, D forms with d. SeMet = C[Se]CC[C@H](N)C(=O)O; S5 = C=CCCC[C@](C)(N)C(=O)O; Nle = CCCC[C@H](N)C(=O)O
value-type: pKd
// scale note: pKd = -log10(conc_M); give the bare number

[[record]]
binder = "Ac-[SeMet]IKLF[S5]LKQ[S5]KK-NH2 (staple 6-10, Stapled synthetic peptide) [hUbc12^Ac1-12 (SeMet) 6, 10]"
readout_number = 6.44

[[record]]
binder = "Ac-[Nle]IKLF[S5]LKQ[S5]KK-NH2 (staple 6-10; SMILES CCCC[C@H](NC(C)=O)C(=O)N[C@H](C(=O)N[C@@H](CCCCN)C(=O)N[C@@H](CC(C)C)C(=O)N[C@@H](Cc1ccccc1)C(=O)N[C@@]1(C)CCCC=CCCC[C@@](C)(C(=O)N[C@@H](CCCCN)C(=O)N[C@@H](CCCCN)C(N)=O)NC(=O)[C@H](CCC(N)=O)NC(=O)[C@H](CCCCN)NC(=O)[C@H](CC(C)C)NC1=O)[C@@H](C)CC, Stapled synthetic peptide) [hUbc12^Ac1-12 (NorLeu) 6, 10]"
readout_number = 5.92

[[record]]
binder = "Ac-MIKLF[S5]LKQ[S5]KK-NH2 (staple 6-10, Stapled synthetic peptide; 'SS' is not explained in the text) [hUbc12^Ac1-12 (Met) SS 6, 10]"
readout_number = 6.73


Switching to the query record.
Return value of pKd for input Ac-MLKLR[S5]LQK[S5]KQ-NH2 (staple 6-10; SMILES CSCC[C@H](NC(C)=O)C(=O)N[C@@H](CC(C)C)C(=O)N[C@@H](CCCCN)C(=O)N[C@@H](CC(C)C)C(=O)N[C@@H](CCCNC(=N)N)C(=O)N[C@@]1(C)CCCC=CCCC[C@@](C)(C(=O)N[C@@H](CCCCN)C(=O)N[C@@H](CCC(N)=O)C(N)=O)NC(=O)[C@H](CCCCN)NC(=O)[C@H](CCC(N)=O)NC(=O)[C@H](CC(C)C)NC1=O, Stapled synthetic peptide; also called Acetyl-yUbc12^1-12(6:10 Staple)) [yUbc12^Ac1-12 (Met) 6, 10] , no commentary.
7.43
